# Tested on: SNB-19 CNS
# assay: NCI-60 one-dose screen, 48 h
# cond: 10 µM unless noted
This is part of a sample that, as a whole, favours compounds with a hit. Of some 83,000 tested, about 20% had one in any assay. The source made the active and inactive calls. How the source made its calls: active means growth percent below 10; inactive means the rest.
API: response.call in t for active, f for inactive

In [3]: df
Out[3]:
                                   compound  target_entity  class_name
0  Clc1cc(Cl)cc(N2N=C(c3cccc(Nc4ccncc4)c3)CC2c2ccccc2)c1 (stereo not given)     SNB-19 CNS           f

# lookup: test call for "CN(C)Cc1c(-c2ccccc2)[nH]c2ccccc12" f

Check the results log: what was the call for Clc1cc(Cl)cc(N2N=C(c3cccc(Nc4ccncc4)c3)CC2c2ccc(Br)cc2)c1 (stereo not given) ? f

What classification did "O=C(Cc1ccc(/C=C/C(=O)c2ncc[nH]2)cc1)Nc1ccc(C(F)(F)F)cc1" end up with in this test? f

GET /call?item= COc1ccc(C(O)c2cc3c(N)c(C(=O)Nc4ccc(Cl)cc4)sc3nc2C)cc1 (stereo not given) returns the recorded outcome of this test. f

For "COc1ccc(C(=O)c2cc3c(N)c(C(=O)Nc4cccc(Cl)c4)sc3nc2C)cc1" , which call appears in the assay record? f

Just curious, what result did "O=C1c2cccnc2C(=O)c2nc3cc(N4CCN(C5CC5)CC4)ccc3nc21" get here? t

Per the assay record, what outcome was assigned to "O=C(O)C(/C=C/c1ccco1)=N\Nc1nc(-c2ccc(Cl)cc2)cs1" ? f

Returns: the outcome recorded for "CC(=O)[C@@H]1CC[C@]2(C(=O)n3ccnc3)CC[C@]3(C)[C@H](CC[C@@H]4[C@@]5(C)Cc6c([nH]c7ccccc67)C(C)(C)[C@@H]5CC[C@]43C)[C@@H]12" in this assay. f

How was "O=C1/C(=C/c2ccc(O)cc2)COc2ccc(-c3ccccc3)cc21" classified in this test? f
